Molecular target: T1, His-tagged CEACAM1 (human, UniProt P13688 35-428)
T1 construct: 45 kDa SPR analyte; also called CEACAM1-HIS; CEACAM1 analyte
T1 sequence: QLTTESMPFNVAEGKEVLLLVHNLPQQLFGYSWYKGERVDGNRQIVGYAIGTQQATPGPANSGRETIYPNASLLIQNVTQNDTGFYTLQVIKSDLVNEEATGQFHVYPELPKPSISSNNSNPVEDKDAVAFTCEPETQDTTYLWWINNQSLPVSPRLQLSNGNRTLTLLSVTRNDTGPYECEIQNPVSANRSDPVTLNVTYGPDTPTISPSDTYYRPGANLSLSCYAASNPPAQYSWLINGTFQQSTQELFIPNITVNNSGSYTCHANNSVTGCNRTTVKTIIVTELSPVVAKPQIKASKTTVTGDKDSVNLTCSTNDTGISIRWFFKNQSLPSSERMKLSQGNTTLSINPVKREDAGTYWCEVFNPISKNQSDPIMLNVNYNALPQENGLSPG
Test: SPR single-cycle, supernatant IgG captured
property.measured: pKd
Formally, pKd is defined as -log10 of the concentration c, with c in mol/L.

VH1/Vκ8 S29A (antibody, IgG4, V domains shown, IgG4 (S241P), kappa; also called Parent; Parent (VH1/Vκ8 S29A)) VH: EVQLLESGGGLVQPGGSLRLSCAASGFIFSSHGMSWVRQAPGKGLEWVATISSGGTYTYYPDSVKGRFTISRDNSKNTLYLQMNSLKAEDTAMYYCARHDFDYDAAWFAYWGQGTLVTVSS VL: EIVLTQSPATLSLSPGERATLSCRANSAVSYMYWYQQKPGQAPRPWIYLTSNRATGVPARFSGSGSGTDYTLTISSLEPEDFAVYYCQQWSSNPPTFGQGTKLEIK: 6.25
9B3_9E5/Vκ8 S29A (antibody, IgG4, V domains shown, IgG4 (S241P), kappa) VH: EVQLLESGGGLVQPGGSLRLSCAASGFTFNAHAISWVRQAPGKGLEWVATISSGGTYTYYPDSVKGRFTISRDNSKNTLYLQMNSLKAEDTAMYYCARHGFDYDAAWFAYWGQGTLVTVSS VL: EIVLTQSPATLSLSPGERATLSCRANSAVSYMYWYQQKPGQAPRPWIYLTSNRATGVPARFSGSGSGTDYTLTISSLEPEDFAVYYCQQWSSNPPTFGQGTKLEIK: 6.82
8H3_9C2 (CDR1)/CP08F05 (antibody, IgG4, V domains shown, IgG4 (S241P), kappa) VH: EVQLLESGGGLVQPGGSLRLSCAASEFTFSDHAMSWVRQAPGKGLEWVATISSGGTYTYYPDSVKGRFTISRDNSKNTLYLQMNSLKAEDTAMYYCARHDFDYFPYWFAHWGQGTLVTVSS VL: EIVLTQSPATLSLSPGERATLSCRANSAVSYMYWYQQKPGQAPRPWIYLTSNRATGVPARFSGSGSGTDYTLTISSLEPEDFAVYYCQQWTSNPPTFGQGTKLEIK: 6.62

For the binder 8H3_9C2/Vκ8 S29A (antibody, IgG4, V domains shown, IgG4 (S241P), kappa) VH: EVQLLESGGGLVQPGGSLRLSCAASEFTFSDHAMSWVRQAPGKGLEWVATISSGGTYTYYPDSVKGRFTISRDNSKNTLYLQMNSLKAEDTAMYYCARHGFDYFPYWFAHWGQGTLVTVSS VL: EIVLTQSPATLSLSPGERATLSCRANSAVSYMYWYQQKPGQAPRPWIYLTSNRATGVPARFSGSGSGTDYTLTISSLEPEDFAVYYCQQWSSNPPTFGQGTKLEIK , what pKd is on record?
6.96
